Ref: PubChem BioAssay (NCI)

test system: OVCAR-4 ovarian; test: NCI tumour cell line growth inhibition, 48 h
PROPERTY_MEASURED: TGI

Some solved entries appear below for comparison.
For record CC(=O)Nc1ccc(C(=O)NN2C(=O)C(Cl)C2c2ccccc2O)cc1 (stereo unspecified) the listed TGI is > 100 µM

For record CCCCC#CC#Cc1cccc(=O)o1 the listed TGI is 37.6 µM

For record CCOC(=O)NC(=O)c1cn(CCN2CCN(C(=O)CCCCCCCCCCNc3ncnc4nc[nH]c34)CC2)c(=O)[nH]c1=O the listed TGI is > 100 µM

For record c1ccc(COCC2OC3c4ccccc4COC3C2OCc2ccccc2)cc1 (stereo unspecified) the listed TGI is > 100 µM

For record COc1cc(O)c2c(=O)cc(C3(O)C=CC(=O)C=C3)oc2c1 the listed TGI is 3.35 µM

For record N#CCCN(CCN(C(=O)Nc1ccccc1)c1ccccc1)C(=O)Nc1ccccc1 the listed TGI is > 100 µM

For record COc1ccc2c(c1)[n+](=O)c(C(=O)/C=C/c1cc(OC)c(OC)c(OC)c1)c(C)n2[O-] the listed TGI is > 100 µM

For record COc1ccc(-c2c(-c3cc(OC)c4c(c3)OCO4)noc2N)cc1 the listed TGI is > 56.4 µM

For record COC(=O)[C@@]12OC[C@]34C([C@@H](O)C1O)[C@@]1(C)CC(=O)C(OC(=O)/C=C(/c5ccccc5)C(F)(F)F)=C(C)C1C[C@H]3OC(=O)[C@H](O)[C@H]42 (stereo partly specified) the listed TGI is > 50 µM

For record N[C@@H]1CCCN(c2c(/C=C3\SC(=O)NC3=O)cccc2-c2ccccc2)C1 the listed TGI is 28.4 µM

Others:
For record O=[N+]([O-])c1ccc(Sc2c3ccccc3nc3ccccc23)nc1 the listed TGI is 12.9 µM

For record CC1=C(c2cc(C(=O)Nc3cccc(C(F)(F)F)c3)ncn2)Sc2ccccc2N1 the listed TGI is > 100 µM

For record COc1ccc(C(=O)c2cc3c(N)c(C(=O)Nc4cccc(Cl)c4C)sc3nc2C)cc1 the listed TGI is > 25 µM

For record CC1=C[S+](c2ccccc2)c2cccc3cc4ccccc4c1c23 (stereo unspecified) the listed TGI is 2.44 µM

For record O=C(c1ccccc1)c1sc2c(=O)c(C(=O)c3ccccc3)c(C(=O)c3ccccc3)sc2c(=O)c1C(=O)c1ccccc1 the listed TGI is > 100 µM

For record NC(=O)NC(=O)c1cccc(NC(=O)CBr)c1 the listed TGI is 3.11 µM

* * *

# key: entry, value: TGI
system: SNB-75 CNS; experiment: NCI tumour cell line growth inhibition, 48 h

Some solved entries appear below for comparison.
For record O=C(O)Cn1c(=O)[nH]c(=O)c2c1ncn2Cc1ccccc1 the listed TGI is > 100 µM

For record NCCN1CC2CCC(CC2)C1 the listed TGI is > 10 µM

For record O=C(NC(Nc1ccc(F)c(Cl)c1)(C(F)(F)F)C(F)(F)F)OCc1ccccc1 the listed TGI is > 100 µM

Others:
For record Cc1ccc(S(=O)(=O)Cc2nc(-c3ccc(C(=O)NCc4cccnc4)cc3)oc2C)cc1 the listed TGI is 47.9 µM

For record Clc1nc2n(c1/C=C/c1cccs1)CCS2 the listed TGI is > 100 µM

For record COC12CC(=O)C(C(C)=O)=C(O)C1(C)c1c(OC(C)=O)c(C)c(O)c(C(C)=O)c1O2 (stereo not drawn) the listed TGI is 80.6 µM
